system: LNCaP; test: Down regulation of androgen receptor expression in human LNCaP cells by Western blot analysis; type: functional, cell-based
pEC50: −log10 of the molar value.
RESULT_TYPE: pEC50

* Cc1ccc(NS(=O)(=O)c2ccc(C)cc2)cc1 | 3.82

* * *

Recorded GI50, one value per entry.
test system: PC-3; experiment: Cytotoxicity against human PC3 cells after 5 days by MTT assay; format: functional; conditions: PC-3, 120 h
RESULT_TYPE: GI50

• Cc1ccc(C#N)c(NS(=O)(=O)c2ccc(F)cc2)c1 = > 100 µM
• Cc1ccc(NS(=O)(=O)c2ccc(F)cc2)c(C(=O)O)c1 = > 100 µM
• O=S(=O)(Nc1ccccc1)c1ccccc1 [PHENYL(PHENYLSULFONYL)AMINE] = > 100 µM
• Cc1ccc(-c2nnn[nH]2)c(NS(=O)(=O)c2ccc(F)cc2)c1 = > 100 µM
